Tested on: Yap1 mRNA
Experiment: Dose-dependent inhibition of human Yap1 in A-431 cells (Example 8, 10,000 cells per well, RTS4814)
Format: cell-based
Settings: 2000.00 nM; A-431 cells, 10,000 cells per well, free uptake, approximately 48 hours, RTS4814
Strand notation (5' to 3'): a small letter for the sugar, then the base; units joined by * are phosphorothioate-linked, units joined directly phosphodiester-linked; [ ] holds rarer units or linkages, { } end groups; capitals alone tell only the bases. k = constrained ethyl (cEt); [5mC] = 5-methylcytosine; d = 2'-deoxy (DNA)
property-label: Yap1 mRNA, % UTC (% UTC)
The response must be a number in % UTC with no trailing unit.

INPUT: Requested read-out: Yap1 mRNA, % UTC. Entry: 1076526 (kG*kT*kA*dG*dA*dA*dA*dG*dA*dT*dG*dG*d[5mC]*kT*k[5mC]*kA; antisense) [compound 1076526]
OUTPUT: 2

INPUT: Requested read-out: Yap1 mRNA, % UTC. Entry: 1074593 (DNA kA*kG*kG*dA*dG*d[5mC]*dA*dA*dG*dT*d[5mC]*dT*dT*kG*kT*kA) [compound 1074593]
OUTPUT: 8

INPUT: Requested read-out: Yap1 mRNA, % UTC. Entry: 1075792 (kG*kA*kT*dT*dA*dG*dA*dA*dA*dG*dT*dG*d[5mC]*k[5mC]*kT*kT; antisense) [compound 1075792]
OUTPUT: 10

INPUT: Requested read-out: Yap1 mRNA, % UTC. Entry: 1075047 (antisense kT*kA*kA*dA*dA*dT*dT*dA*dG*dA*d[5mC]*dT*d[5mC]*k[5mC]*k[5mC]*k[5mC]) [compound 1075047]
OUTPUT: 10

INPUT: Requested read-out: Yap1 mRNA, % UTC. Entry: 1074610 (DNA kT*k[5mC]*kT*dA*dG*dT*dT*dA*d[5mC]*dA*dT*d[5mC]*dA*kT*k[5mC]*kT) [compound 1074610]
OUTPUT: 7

INPUT: Requested read-out: Yap1 mRNA, % UTC. Entry: 1076524 (kA*kA*kT*dT*dT*dA*dT*dA*dT*d[5mC]*dA*dG*dG*kT*k[5mC]*kA; antisense) [compound 1076524]
OUTPUT: 7

Attribution: patent US11214803B2
